Tested on: OVCAR-8
test-protocol: NCI tumour cell line growth inhibition, 48 h
Activity calls are given as the source filed them. No stated cut-off is given here; in the data, active = GI50 up to about 1.1 µM and inactive = higher.
Valid outcomes are listed here; reply with one: active, inactive

Solved entries (count: 5):
molecule: COc1cc(C2C(C(=O)O)=C(CO)Oc3cc4c(cc32)OCO4)cc(OC)c1O (configuration not stated)
target-under-test: OVCAR-8
assigned-category: inactive
//
molecule: CNC1c2ccccc2C(=O)c2cc3c(cc21)OCCOCCOCCOCCO3 (configuration not stated)
target-under-test: OVCAR-8
assigned-category: inactive
//
molecule: CC(=O)O[C@H]1C[C@H](O[C@H]2[C@@H](O)C[C@H](O[C@H]3[C@@H](O)C[C@H](O[C@H]4CC[C@@]5(C)[C@H](CC[C@@H]6[C@@H]5C[C@@H](O)[C@]5(C)[C@@H](C7=CC(=O)OC7)CC[C@]65O)C4)O[C@@H]3C)O[C@@H]2C)O[C@H](C)[C@H]1O[C@@H]1O[C@H](CO)[C@@H](O)[C@H](O)[C@H]1O [LANATOSIDE C]
target-under-test: OVCAR-8
assigned-category: active
//
molecule: CCC(/C=C/C1OC(=O)C=CC1C)=C\C(C)C/C=C/C(C)=C/C(C)C(=O)C(C)C(O)C(C)C/C(C)=C/C(=O)O (configuration not stated)
target-under-test: OVCAR-8
assigned-category: inactive
//
molecule: COC(=O)c1scc(N)c1-n1ccc(=O)[nH]c1=O
target-under-test: OVCAR-8
assigned-category: inactive

Prompt: What outcome does the record of this test show for COc1cc2cc(C(=O)N3C[C@H](CCl)c4c3cc(O)c3ccccc43)[nH]c2c(OC)c1OC ?
Response: active

Prompt: What outcome does the record of this test show for O=C1C=C(Nc2ccccc2C(=O)c2ccccc2)c2ccccc2C1=O ?
Response: inactive
